Numbers sourced from patent US20130310379A1.

TARGET_DESC: EZH2 (Homo sapiens)
Sequence (Q15910 whole entry): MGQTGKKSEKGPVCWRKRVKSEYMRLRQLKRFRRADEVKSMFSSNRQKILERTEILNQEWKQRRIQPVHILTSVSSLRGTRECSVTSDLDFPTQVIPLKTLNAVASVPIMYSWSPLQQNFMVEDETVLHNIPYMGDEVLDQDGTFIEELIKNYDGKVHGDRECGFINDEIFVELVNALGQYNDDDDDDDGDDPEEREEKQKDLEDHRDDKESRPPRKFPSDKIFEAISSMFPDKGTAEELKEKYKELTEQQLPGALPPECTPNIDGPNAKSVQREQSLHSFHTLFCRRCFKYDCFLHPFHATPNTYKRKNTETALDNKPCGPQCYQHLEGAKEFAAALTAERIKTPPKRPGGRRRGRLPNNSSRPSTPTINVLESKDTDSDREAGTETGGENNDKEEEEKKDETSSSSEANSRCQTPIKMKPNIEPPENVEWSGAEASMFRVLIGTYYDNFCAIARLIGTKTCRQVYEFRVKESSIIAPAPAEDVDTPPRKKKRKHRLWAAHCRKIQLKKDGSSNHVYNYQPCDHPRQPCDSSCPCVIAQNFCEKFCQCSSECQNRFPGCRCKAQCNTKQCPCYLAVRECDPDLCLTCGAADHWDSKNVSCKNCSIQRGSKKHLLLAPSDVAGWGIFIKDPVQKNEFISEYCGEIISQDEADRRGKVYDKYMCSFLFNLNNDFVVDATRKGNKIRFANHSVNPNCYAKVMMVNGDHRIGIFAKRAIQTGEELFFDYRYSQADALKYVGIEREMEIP
Sequence (O75530 whole entry partner): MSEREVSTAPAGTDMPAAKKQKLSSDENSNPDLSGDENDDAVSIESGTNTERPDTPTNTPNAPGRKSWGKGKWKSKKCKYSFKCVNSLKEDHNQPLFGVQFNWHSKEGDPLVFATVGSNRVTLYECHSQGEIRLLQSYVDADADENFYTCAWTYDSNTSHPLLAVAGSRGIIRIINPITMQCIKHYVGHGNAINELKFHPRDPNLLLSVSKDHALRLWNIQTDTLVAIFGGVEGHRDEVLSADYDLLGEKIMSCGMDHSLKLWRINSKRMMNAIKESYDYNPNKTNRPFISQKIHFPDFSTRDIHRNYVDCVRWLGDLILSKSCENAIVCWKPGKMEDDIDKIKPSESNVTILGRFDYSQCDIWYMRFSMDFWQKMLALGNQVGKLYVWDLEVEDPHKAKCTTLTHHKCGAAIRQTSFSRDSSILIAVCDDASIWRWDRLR
Sequence (Q15022 whole entry partner): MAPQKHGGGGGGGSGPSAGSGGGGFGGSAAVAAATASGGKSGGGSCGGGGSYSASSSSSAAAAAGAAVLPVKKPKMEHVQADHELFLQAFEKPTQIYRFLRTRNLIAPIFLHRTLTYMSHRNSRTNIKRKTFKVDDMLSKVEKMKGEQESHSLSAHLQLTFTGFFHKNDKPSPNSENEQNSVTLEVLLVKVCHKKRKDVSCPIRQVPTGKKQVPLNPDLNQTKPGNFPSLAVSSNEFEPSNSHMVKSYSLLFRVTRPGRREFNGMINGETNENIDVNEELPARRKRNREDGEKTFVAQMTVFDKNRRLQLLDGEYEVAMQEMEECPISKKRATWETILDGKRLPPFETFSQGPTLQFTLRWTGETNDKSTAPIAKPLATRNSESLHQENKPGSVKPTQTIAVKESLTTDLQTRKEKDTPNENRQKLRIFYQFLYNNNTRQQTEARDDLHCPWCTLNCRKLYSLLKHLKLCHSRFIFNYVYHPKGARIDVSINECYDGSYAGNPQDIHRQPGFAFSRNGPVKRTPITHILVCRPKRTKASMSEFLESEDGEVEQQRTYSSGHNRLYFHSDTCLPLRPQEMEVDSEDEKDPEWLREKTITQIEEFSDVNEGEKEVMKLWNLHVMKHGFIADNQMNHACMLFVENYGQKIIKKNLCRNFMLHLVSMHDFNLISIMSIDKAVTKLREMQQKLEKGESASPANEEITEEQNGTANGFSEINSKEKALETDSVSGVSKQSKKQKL
ASSAY_METHOD_TEXT: EZH2 assay: rPRC2 with biotinylated oligonucleosome substrates and 3H SAM, FlashPlate scintillation counting, IC50
Type: biochemical
CONDITION_CONTEXT: rPRC2, biotinylated oligonucleosome substrates, 3H SAM; read-out: EZH2 IC50
pIC50: −log10 of the molar value.
For each record, write down the corresponding pIC50.

> print(dat)
                                   compound   measurement
1  CC1(C)CC(NC(=O)c2ccc(Oc3ccc(Br)cc3)cc2)CC(C)(C)N1        < 4.10
2  CC1(C)CC(NC(=O)c2ccc(N3CCOc4ccccc43)cc2)CC(C)(C)N1        < 4.10
3  CC1(C)CC(NC(=O)c2ccc(Oc3cccc(-c4ccc(N)nc4)c3C#N)c(Cl)c2)CC(C)(C)N1        > 5.30
4  CC1(C)CC(NC(=O)c2ccc(C(O)c3ccccc3)cc2)CC(C)(C)N1 (stereo not shown)        < 4.10
5  Cc1ccc(-c2cccc(OCc3ccc(C(=O)NC4CC(C)(C)NC(C)(C)C4)cc3)c2)s1  4.70 to 5.30

Return reported pIC50 values for all items listed beneath this line.
1. Cn1cc(-c2cccc(Oc3ccc(C(=O)NC4CC(C)(C)NC(C)(C)C4)cc3Cl)c2C#N)ccc1=O
2. CC1(C)CC(NC(=O)c2ccc(Oc3ccccc3C#N)c(Br)c2)CC(C)(C)N1
3. CC(O)c1cccc(Oc2ccc(C(=O)NC3CC(C)(C)NC(C)(C)C3)cc2Cl)c1-c1ccncc1 (stereo not shown)
4. CC1(C)CC(NC(=O)c2ccc(OC3CCCC3)cc2)CC(C)(C)N1
5. CC1(C)CC(NC(=O)c2ccc(Oc3ccccc3C#N)c(Cl)c2)CC(C(=O)O)N1 (stereo not shown)
6. CC1(C)CC(NC(=O)c2ccc(COc3cccc(Br)c3)c(Br)c2)CC(C)(C)N1
7. CN(C)C(=O)CCc1cccc(Oc2ccc(C(=O)NC3CC(C)(C)NC(C)(C)C3)cc2Cl)c1C#N
8. CC1(C)CNCCC1NC(=O)c1ccc(Oc2ccccc2C#N)c(Cl)c1 (stereo not shown)

> 5.30
> 5.30
4.70 to 5.30
< 4.10
< 4.10
4.70 to 5.30
> 5.30
< 4.10

Consider the following items and state reported pIC50 for each.
1. CC1(C)CC(NC(=O)c2ccc(Oc3cccc(-c4ccncc4Cl)c3C#N)c(Cl)c2)CC(C)(C)N1
2. CC1(C)CC(NC(=O)c2ccc(Oc3ccccc3C(C)(C)C)cc2)CC(C)(C)N1
3. CC1(C)CC(NC(=O)c2ccc(Oc3ncccc3C(N)=O)cc2)CC(C)(C)N1

1: > 5.30; 2: 4.70 to 5.30; 3: < 4.10
